- experimental-details: Toxicity in weanling Wistar rat assessed as survival at 2 mg/rat/day administered by stomach tube prior to feeding with riboflavin-deficient diet measured for 28 days relative to control
- condition-label: in vivo, oral
measure: survival at 672 h (%)
Provide only the numeric value, understood in %.

In [3]: df
Out[3]:
                            compound_string  reported_result
0  CCc1cc2nc3c(=O)[nH]c(=O)nc-3n(CCN(CCO)CCO)c2cc1CC.Cl               25

Please find the next molecule below.
stdin: Query survival at 672 h for Cc1cc2nc3c(=O)[nH]c(=O)nc-3n(CCN(CCO)CCO)c2cc1Cl.Cl
stdout: 100

---

- experimental-details: Toxicity in weanling Wistar rat assessed as survival at 2 mg/rat/day administered by stomach tube prior to feeding with riboflavin-deficient diet measured for 28 days relative to control
- condition-label: in vivo, oral
As shown below, each of these molecules has a reported survival at 672 h value.
Answer with a number only, understood to be in %.

>>> df
                            compound_string  reported_result
0  Cc1cc2c(cc1Cl)nc1c(=O)[nH]c(=O)nc-1n2CCN(CCO)CCO.Cl              100
1  Cc1cc2nc3c(=O)[nH]c(=O)nc-3n(CCN(CCO)CCO)c2cc1C               40

stdin: Tell us which survival at 672 h value is on record for O=c1nc2n(CCN(CCO)CCO)c3cc(Cl)c(Cl)cc3nc-2c(=O)[nH]1
stdout: 100

stdin: Provide measured survival at 672 h value, entry: CCc1cc2nc3c(=O)[nH]c(=O)nc-3n(CCN(CCO)CCO)c2cc1C.Cl
stdout: 60

Source listed as ChEMBL document CHEMBL3244166.
